- Tested on: Tyrosine-protein kinase ABL1 (Homo sapiens), P00519 [T315I]
- runParameters: at 0.1 µM
assayReadout: inhibition (%)
Write the answer as a number in %, unit excluded.

Solved entries (count: 3):
| compound | inhibition, % |
| --- | --- |
| CN1CCC(n2cnc(-c3ccc(F)cc3)c2-c2ccnc(NCCO)n2)CC1 | 3.06 |
| O=C1Nc2ccccc2/C1=C1\CCc2cc(O)ccc21 | 4.27 |
| FC(F)(F)CNc1nccc(-c2cnn3ncccc23)n1 | 0.06 |

For the compound COC(=O)Nc1nc2cc(Oc3ccc(NC(=O)Nc4ccccc4)cc3)ccc2[nH]1 , what inhibition is on record? 15.9

For the compound CNC(=O)c1cncc(/C=C/c2ccccc2C)c1 , what inhibition is on record? 1.47

For the compound CCN1CCC(C(=O)Nc2n[nH]c3nnc(-c4cccc(F)c4F)cc23)CC1 , what inhibition is on record? 0.53

For the compound Cc1nnc(-c2cccc(-c3ccc(C(=O)NCC4CC4)cc3)c2)o1 , what inhibition is on record? 4.43

For the compound CC1=C(C(=O)Nc2ccc3[nH]ncc3c2)C(c2ccc(F)cc2)N=C(c2ccc(C(F)(F)F)nc2)N1 (stereo unspecified) , what inhibition is on record? 1.97

---

- testedSystem: Dual specificity tyrosine-phosphorylation-regulated kinase 1B (Homo sapiens) (UniProt Q9Y463);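 note: values are mean percent inhibition of DYRK1B, from the GSK_PKIS set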
- Sequence (Q9Y463 whole entry, looked up): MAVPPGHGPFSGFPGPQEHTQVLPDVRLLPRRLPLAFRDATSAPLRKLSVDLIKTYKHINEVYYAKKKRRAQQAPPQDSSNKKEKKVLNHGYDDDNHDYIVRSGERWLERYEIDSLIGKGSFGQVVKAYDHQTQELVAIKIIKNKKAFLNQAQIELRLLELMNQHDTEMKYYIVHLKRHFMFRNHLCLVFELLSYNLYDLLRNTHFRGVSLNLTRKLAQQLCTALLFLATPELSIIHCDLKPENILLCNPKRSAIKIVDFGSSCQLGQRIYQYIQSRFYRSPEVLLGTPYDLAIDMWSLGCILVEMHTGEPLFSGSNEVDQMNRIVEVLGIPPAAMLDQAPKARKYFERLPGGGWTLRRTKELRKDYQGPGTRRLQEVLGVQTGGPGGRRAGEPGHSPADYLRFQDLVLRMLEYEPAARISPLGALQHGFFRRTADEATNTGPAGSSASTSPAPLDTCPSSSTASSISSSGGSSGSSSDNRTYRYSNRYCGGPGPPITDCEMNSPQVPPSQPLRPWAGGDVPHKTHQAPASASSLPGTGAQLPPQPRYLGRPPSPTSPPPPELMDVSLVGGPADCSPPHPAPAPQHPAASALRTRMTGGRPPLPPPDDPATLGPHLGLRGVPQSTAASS
- runParameters: at 1 µM
assayReadout: inhibition (%)
Write the answer as a number in %, unit excluded.

| compound | inhibition, % |
| --- | --- |
| CCN1CCC(C(=O)Nc2n[nH]c3nnc(-c4cccc(F)c4F)cc23)CC1 | 54.3 |
| COc1ccc(-c2nn3ncccc3c2-c2ccnc(Nc3ccc(F)c(F)c3)n2)cc1 | 1.01 |
| CNC(=O)c1cncc(/C=C/c2ccccc2C)c1 | 0.92 |
| COc1ccccc1-c1cc(/C=C2\C(=O)Nc3ncc(Br)cc32)cc(Br)c1O | 4.16 |

Field: next compound
For the compound CC1=C(C(=O)Nc2ccc3[nH]ncc3c2)C(c2ccc(F)cc2)N=C(c2ccc(C(F)(F)F)nc2)N1 (stereo not given) , what inhibition is on record? 1.37

---

Attribute: inhibition
- testedSystem: Cytoplasmic tyrosine-protein kinase BMX (Homo sapiens);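 note: reported value is the mean percent inhibition of BMX, from the GSK PKIS kinase inhibitor screen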
- Sequence (whole entry): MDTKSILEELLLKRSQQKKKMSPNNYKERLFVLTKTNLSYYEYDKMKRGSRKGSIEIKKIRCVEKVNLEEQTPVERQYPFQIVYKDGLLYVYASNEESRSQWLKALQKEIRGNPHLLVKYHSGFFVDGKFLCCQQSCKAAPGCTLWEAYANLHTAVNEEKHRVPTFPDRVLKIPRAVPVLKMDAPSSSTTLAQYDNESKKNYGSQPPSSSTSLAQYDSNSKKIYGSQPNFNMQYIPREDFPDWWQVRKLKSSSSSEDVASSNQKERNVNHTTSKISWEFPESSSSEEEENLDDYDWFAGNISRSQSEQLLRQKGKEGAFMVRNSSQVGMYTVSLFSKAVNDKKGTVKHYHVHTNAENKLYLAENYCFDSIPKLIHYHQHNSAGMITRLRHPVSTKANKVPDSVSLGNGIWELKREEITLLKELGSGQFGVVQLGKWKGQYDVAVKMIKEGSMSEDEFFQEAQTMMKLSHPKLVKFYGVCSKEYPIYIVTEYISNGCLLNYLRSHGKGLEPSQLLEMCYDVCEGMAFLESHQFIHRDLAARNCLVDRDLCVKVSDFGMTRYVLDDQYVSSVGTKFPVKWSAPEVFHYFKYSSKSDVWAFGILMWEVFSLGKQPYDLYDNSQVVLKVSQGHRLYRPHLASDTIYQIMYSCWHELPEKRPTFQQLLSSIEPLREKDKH
- runParameters: at 1 µM
Write the answer as a number in %, unit excluded.

| molecule | testedSystem | readoutUnit | inhibition |
| --- | --- | --- | --- |
| O=C1Nc2ccccc2/C1=C1\CCc2cc(O)ccc21 | Cytoplasmic tyrosine-protein kinase BMX (Homo sapiens) | % | 7.52 |
| COc1cccc(Nc2nccc(-c3cnn4ncccc34)n2)c1 | Cytoplasmic tyrosine-protein kinase BMX (Homo sapiens) | % | 21.8 |
| CC1=C(C(=O)Nc2ccc3[nH]ncc3c2)C(c2ccc(F)cc2)N=C(c2ccc(C(F)(F)F)nc2)N1 (centres undefined) | Cytoplasmic tyrosine-protein kinase BMX (Homo sapiens) | % | 3.01 |
| CC1=C(C(=O)Nc2ccc3[nH]nc(C)c3c2)C(c2ccc(C(F)(F)F)cc2)CC(=O)N1 (centres undefined) | Cytoplasmic tyrosine-protein kinase BMX (Homo sapiens) | % | 4.58 |

For the molecule NS(=O)(=O)c1cccc(N/C=C2\C(=O)Nc3ccccc32)c1 , what inhibition is on record? 5.84

For the molecule Cc1cc(O)cc(C)c1/C=C/c1cncc(C(=O)OC(C)(C)C)c1 , what inhibition is on record? 47.3

For the molecule O=C(O[C@H]1CN[C@H](C#Cc2cc3ncnc(Nc4ccc(OCc5cccc(F)c5)c(Cl)c4)c3s2)C1)N1CCOCC1 , what inhibition is on record? 3.25

For the molecule COc1ccc(-c2nn3ncccc3c2-c2ccnc(Nc3ccc(F)c(F)c3)n2)cc1 , what inhibition is on record? 6.9

For the molecule CS(=O)(=O)Nc1ccc(-c2ccc3c(NC(=O)C4CC4)n[nH]c3c2)cc1 , what inhibition is on record? 4.64

For the molecule COc1cc(N2CCN(C(C)C)CC2)ccc1Nc1nc(Nc2cccc3ncccc23)c2cc[nH]c2n1 , what inhibition is on record? -0.89

For the molecule CCS(=O)(=O)c1ccc(OC)c(Nc2ncc(-c3cccc(C(C)=O)c3)o2)c1 , what inhibition is on record? 15.7

For the molecule CCN1CCC(C(=O)Nc2n[nH]c3nnc(-c4cccc(F)c4F)cc23)CC1 , what inhibition is on record? 1.04

For the molecule COc1cccc(-n2ncc3c(N/N=C/c4ccc(C(=O)NCCN(C)C)cc4)ncnc32)c1 , what inhibition is on record? 46.3

For the molecule COc1cc(N2CCN(C(C)C)CC2)ccc1Nc1nc(Nc2cccc(F)c2C(=O)O)c2cc[nH]c2n1 , what inhibition is on record? 4.13

For the molecule NS(=O)(=O)c1ccc(N/N=C2\C(=O)Nc3cccc(CCc4ccncc4)c32)cc1 , what inhibition is on record? 4.79

For the molecule COc1ccc(Nc2ncc(-c3ccccc3)o2)cc1OC , what inhibition is on record? 4.92

For the molecule O=C(O[C@H]1CN[C@H](C#Cc2cc3ncnc(Nc4ccc5c(ccn5Cc5cc(F)ccc5F)c4)c3s2)C1)N1CCOCC1 , what inhibition is on record? 4.96

For the molecule COC(=O)Nc1nc2ccc(Oc3ccc(NC(=O)Nc4cc(C(F)(F)F)ccc4F)cc3)cc2s1 , what inhibition is on record? 2.68

For the molecule CS(=O)(=O)CCNCc1ccc(-c2ccc3ncnc(Nc4ccc(OCc5cccc(C(F)(F)F)c5)cc4)c3c2)o1 , what inhibition is on record? 6.44

For the molecule CN1CCC(n2cnc(-c3ccc(F)cc3)c2-c2ccnc(NCCO)n2)CC1 , what inhibition is on record? 4.95

For the molecule CCCNc1cccc(-n2ncc3c(N/N=C/c4ccncc4)ncnc32)c1 , what inhibition is on record? 13.4
